Protocol Notes: neutral chemical: log K is the mean of log D over all measurements at the three pH values (D shown independent of pH, paired t-test); sd is the table's stddev. PDMS sheets cleaned by Soxhlet with ethyl acetate; batch shaking method with a mixture of all chemicals at several PDMS-mass to water-volume ratios and spiked levels; vials shaken on an orbital shaker at room temperature in the dark, sampled at two equilibration times; PDMS extracts and water quantified by LC-HRMS (Orbitrap); D from the slope of C_PDMS on C_w or their ratio
Condition Info: PDMS (polydimethylsiloxane silicone sheet); phosphate buffer at three target pH values (the paper's methods)
Readout Name: log K PDMS/w (neutral species)

[[record]]
smiles_repr = "O=S(=O)(c1ccc(Cl)cc1)c1ccc(Cl)cc1"
readout_name = "log K PDMS/w (neutral species)"
obs_value = "2.563 log units; D and K as the pape"

[[record]]
smiles_repr = "O=P(c1ccccc1)(c1ccccc1)c1ccccc1"
readout_name = "log K PDMS/w (neutral species)"
obs_value = "2.562 log units; D and K as the pape"

[[record]]
smiles_repr = "N#CSCSc1nc2ccccc2s1"
readout_name = "log K PDMS/w (neutral species)"
obs_value = "1.857 log units; D and K as the pape"

[[record]]
smiles_repr = "O=C1NCCN1Cc1ccc(Cl)nc1"
readout_name = "log K PDMS/w (neutral species)"
obs_value = "1.372 log units; D and K as the pape"


Entry N#Cc1nn(-c2c(Cl)cc(C(F)(F)F)cc2Cl)c(N)c1C(F)(F)F — recorded log K PDMS/w (neutral species) = 1.919 log units; D and K as the pape

Entry CC(C)(C#N)c1cc(Cn2cncn2)cc(C(C)(C)C#N)c1 — recorded log K PDMS/w (neutral species) = 2.022 log units; D and K as the pape

Entry N#Cc1nn(-c2c(Cl)cc(C(F)(F)F)cc2Cl)c(N)c1SC(F)(F)F — recorded log K PDMS/w (neutral species) = 2.436 log units; D and K as the pape

Entry CCCCCCCCn1sccc1=O — recorded log K PDMS/w (neutral species) = 2.956 log units; D and K as the pape

Entry CCC(C(N)=O)(C(N)=O)c1ccccc1 — recorded log K PDMS/w (neutral species) = -0.5565 log units; D and K as the pape

Entry [O-][n+]1cccc2ccccc21 — recorded log K PDMS/w (neutral species) = 1.126 log units; D and K as the pape

Entry COCCOCCOCCOCCOC — recorded log K PDMS/w (neutral species) = 0.442 log units; D and K as the pape
